B1: HDV Ribozyme (parent)
chain: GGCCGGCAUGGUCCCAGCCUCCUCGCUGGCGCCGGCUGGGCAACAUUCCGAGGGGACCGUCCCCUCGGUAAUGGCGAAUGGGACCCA

Variants of: B1
METHOD_DESCRIPTION: self-cleavage, relative activity (ratio to wild type); higher = more cleavage; co-transcriptional
OUTCOME_MEASURE: self-cleavage

variant_code=G74U outcome_measure=self-cleavage data_value=0.569

Answer for every listed entry: what is its self-cleavage? The entries follow.
1. U23A U47G
2. G54A U72G
3. C15A G25U
4. C66A A71U
5. C24A G59A

Result string:
0.748
0.453
0.0791
0.692
0.842

Dear colleague, could you please provide self-cleavage for the variants listed below?
1. G50U C63U
2. G35A C48A
3. G6C U79G
4. C22U C48U
5. G74C
6. U12C C57G

Result string:
1. 0.909
2. 0.659
3. 0
4. 0.727
5. 0.213
6. 0.0831

# per-item lookup of self-cleavage; items listed below
1. C24A U27C
2. C64A U79G
3. G53C A77G
4. G40U C85G
5. G28U G39U
6. U9G A71U

Result string:
1: 0.0791; 2: 0.684; 3: 0.88; 4: 0.612; 5: 0.119; 6: 1.13

Source of measurements: the RNAGym collection of RNA variant scans (doi:10.7554/elife.80360)
